# Test system: KB-3-1
# Protocol: Cell survival assay (SRB), KB-3-1
# Format: cell-based, human
# Condition summary: Homo sapiens, KB 3-1, KB-3-1 cells (paclitaxel-sensitive parent); read-out: In vitro IC50 (nM) KB-3-1
For each record, write down the corresponding log10 IC50.
Please note: log10 values; quantity IC50; unit nM.

Compound	log10 IC50
CCOC(=O)/C(C)=C/[C@H](C(C)C)N(C)C(=O)[C@@H](NC(=O)[C@@H](NC)C(C)(C)c1ccccc1)C(C)(C)SC [Example 79]	2.65
CCOC(=O)/C(C)=C/[C@H](C(C)C)N(C)C(=O)[C@@H](NC(=O)[C@@H](NC)C(C)(C)c1ccc(OC)cc1OC)C(C)(C)C [Example 58]	2.16
CN[C@@H](C(=O)N[C@H](C(=O)N(C)[C@H](/C=C(\C)C(=O)O)C(C)C)C(C)(C)C)C(C)(C)c1cc(C(F)(F)F)cc(C(F)(F)F)c1 [Example 67]	2.23
CCOC(=O)/C(C)=C/[C@H](C(C)C)N(C)C(=O)/C(C)=C/[C@H](C(C)C)N(C)C(=O)[C@@H](NC(=O)[C@@H](NC)C(C)(C)c1ccccc1)C(C)(C)C [Example 113]	1.26
CNC(C(=O)N[C@H](C(=O)N(C)[C@H](/C=C(\C)C(=O)O)C(C)C)C(C)(C)C)C1(c2ccccc2)CC1 (stereo in doubt) [Example 142]	2.36
CCOC(=O)/C(C)=C/[C@H](C(C)C)N(C)C(=O)[C@@H](NC(=O)[C@@H](NC)C(C)(C)c1ccc(C)c(C)c1)C(C)(C)C [Example 13a]	0.96
CN[C@H](C(=O)N[C@H](C(=O)N(C)[C@H](/C=C(\C)C(=O)O)C(C)C)C(C)(C)C)C(C)(C)c1ccc(C(C)(C)C)cc1 [Example 30]	0.48
CCCC/C(=C\[C@@H](NC(=O)[C@@H](NC(=O)[C@@H](NC)C(C)(C)c1ccccc1)C(C)(C)C)C(C)C)C(=O)O [Example 77]	2.76
C/C(=C\[C@H](C(C)C)N(C)C(=O)[C@@H](NC(=O)[C@@H](N)Cc1cccc2ccccc12)C(C)(C)C)C(=O)O [Example 130]	1.78
CCCCCC(C)(C)[C@@H](NC)C(=O)N[C@H](C(=O)N(C)[C@H](/C=C(\C)C(=O)O)C(C)C)C(C)(C)C [Example 51]	2.35

Report log10 IC50 for every entry below.
1. CN[C@H](C(=O)N[C@H](C(=O)N(C)[C@H](/C=C(\C)C(=O)O)C(C)C)C(C)(C)c1ccc(C(=O)c2ccccc2)cc1)C(C)(C)c1ccccc1 [Example 90]
2. CN[C@H](C(=O)N[C@H](C(=O)N(C)[C@H](/C=C(\C)C(=O)O)C(C)C)C(C)(C)C)C(C)(C)c1c[nH]c2ccccc12 [Example 141]
3. CN[C@H](C(=O)N[C@@H](CC(C)C)C(=O)N(C)[C@H](/C=C(\C)C(=O)O)C(C)C)C(C)(C)c1ccccc1.O=C(O)C(F)(F)F [Example 96, Trifluoroacetic Acid]

1.35
-0.16
1.28

====

# System: SKBR3
# Protocol: Cell survival assay (SRB), SKBR3
# Type: cell-based
# Condition summary: Homo sapiens, SK-BR-3, 72 h; SKBR3, breast; 3 days, SRB staining
Test readout: pIC50
Numbers only, as −log10 of the molar value.

Which pIC50 value belongs to "CN[C@H](C(=O)N[C@H](C(=O)N(C)[C@H](/C=C(\C)C(=O)O)C(C)C)C(C)(C)C)C(C)(C)c1ccccc1" ?
8.64

====

# Test system: KB-3-1
# Protocol: Cell survival assay (SRB), KB-3-1
# Type: cell-based, human
# Condition summary: Homo sapiens, KB 3-1, KB-3-1 cells (paclitaxel-sensitive parent); read-out: In vitro IC50 (nM) KB-3-1
Exercise: for every item that follows, state its recorded IC50.
Answers are plain numbers, in nM.

Compound	Test readout	Recorded result
CN[C@H](C(=O)N[C@H](C(=O)N(C)[C@H](/C=C(\C)C(=O)O)C(C)C)C(C)(C)C)C(C)(C)c1ccc(C(=O)c2ccccc2)cc1 [Example 91]	IC50	1.7

For the 7 compounds below, give their IC50 values.
1. CCOC(=O)/C(C)=C/[C@H](C(C)C)N(C)C(=O)[C@@H](NC(=O)[C@H](NC)C(C)(C)c1cc(C)cc(C)c1)C(C)(C)C [Example 16b]
2. CCOC(=O)/C(C)=C/[C@H](C(C)C)N(C)C(=O)[C@@H](NC(=O)[C@@H](NC)C(C)(C)c1ccccc1)C(C)(C)C [Example 133]
3. CNC(C(=O)NC(C(=O)N(C)C(C=C(C)C(=O)O)C(C)C)C(C)(C)C)C(C)c1ccccc1.O=C(O)C(F)(F)F (stereo not shown) [Example 100, Trifluoroacetic Acid]
4. CCCC[C@@H](/C=C(\C)C(=O)O)N(C)C(=O)[C@@H](NC(=O)[C@@H](NC)C(C)(C)c1ccccc1)C(C)(C)C [Example 75]
5. CCOC(=O)/C(C)=C/[C@H](C(C)C)N(C)C(=O)[C@@H](NC(=O)[C@@H](NC)C(C)(C)c1ccc(C(C)(C)C)cc1)C(C)(C)C [Example 29]
6. C/C(=C\[C@H](C(C)C)N(C)C(=O)[C@@H](NC(=O)[C@@H](N(C)C)C(C)(C)c1ccccc1)C(C)(C)C)C(=O)O [Example 52]
7. CCOC(=O)/C(C)=C/[C@H](C(C)C)N(C)C(=O)[C@@H](NC(=O)[C@@H](NC)C(C)(C)c1ccc(C)cc1)C(C)(C)C [Example 10a]

1: 257; 2: 34; 3: 114; 4: 36; 5: 35.4; 6: 1.55; 7: 33.9

====

# System: A498
# Protocol: Cell survival assay (SRB), A498
# Assay type: cell-based
# Condition summary: Homo sapiens, A498, 72 h
Test readout: IC50 (nM)
Give bare numbers, in nM.

Need IC50, item CN[C@H](C(=O)N[C@H](C(=O)N(C)[C@H](/C=C(\C)C(=O)O)C(C)C)C(C)(C)C)C(C)(C)c1ccccc1 [Example 129]
0.8

====

Assign IC50 to each entry below.
# Tested on: KB-3-1
# Protocol: Cell survival assay (SRB), KB-3-1
# Assay type: cell-based, human
# Condition summary: Homo sapiens, KB 3-1, KB-3-1 cells (paclitaxel-sensitive parent); read-out: In vitro IC50 (nM) KB-3-1
One number for each entry, in nM.

Required: IC50, one value per compound below.
1. CNC(=O)/C(C)=C/[C@H](C(C)C)N(C)C(=O)[C@@H](NC(=O)[C@@H](NC)C(C)(C)c1ccccc1)C(C)(C)C [Example 108]
2. CN[C@@H](C(=O)N[C@H](C(=O)N(C)[C@H](/C=C(\C)C(=O)O)C(C)C)C(C)(C)C)C(C)(C)c1cccc(C(F)(F)F)c1 [Example 63]
3. CN[C@H](C(=O)N[C@H](C(=O)N(C)[C@H](/C=C(\C)C(=O)O)C(C)C)C(C)C)C(C)(C)c1ccccc1.O=C(O)C(F)(F)F [Example 105, Trifluoroacetic Acid]

[68.3, 19.1, 5.25]

====

# System: KB-V1 (MDR1++)
# Protocol: Cell survival assay (SRB), KB-V1 (MDR1++)
Test readout: Ratio KBV1/KB
Answers are plain numbers.

Completed entries (count: 5):
> print(dat)
                                   compound   test.readout  recorded.result
1  CCCC/C(=C\[C@@H](NC(=O)[C@@H](NC(=O)[C@@H](NC)C(C)(C)c1ccccc1)C(C)(C)C)C(C)C)C(=O)O [Example 77]  Ratio KBV1/KB              5.2
2  CN[C@H](C(=O)N[C@H](C(=O)N(C)[C@H](/C=C(\C)C(=O)O)C(C)C)C(C)(C)C)C(C)(C)c1ccc(C(=O)c2ccccc2)cc1 [Example 91]  Ratio KBV1/KB            308.7
3  CN[C@H](C(=O)N[C@H](C(=O)N(C)[C@H](/C=C(\C)C(=O)O)C(C)C)C(C)(C)c1ccc(OC)cc1)C(C)(C)c1ccccc1 [Example 87]  Ratio KBV1/KB             72.4
4  C/C(=C\[C@H](C(C)C)N(C)C(=O)[C@@H](NC(=O)[C@@H](NCCO)C(C)(C)c1ccccc1)C(C)(C)C)C(=O)O [Example 153]  Ratio KBV1/KB             16.4
5  CN[C@H](C(=O)N[C@H](C(=O)N(C)[C@H](/C=C(\C)C(=O)O)C(C)C)C(C)(C)C)C(C)(C)c1cccc(F)c1 [Example 60]  Ratio KBV1/KB             77.4

Which Ratio KBV1/KB value is on record for CN[C@H](C(=O)N[C@H](C(=O)N(C)[C@H](/C=C(\C)C(=O)O)C(C)C)C(C)(C)C)C(C)(C)c1ccc(C)c(C)c1 [Example 14] ?
95.6
